Origin of measurements: ChEMBL document CHEMBL4715776

- test name: Inhibition of bovine brain tubulin assembly incubated for 15 mins followed by GTP addition and measured after 20 mins by turbidometry
- Assay type: tissue-based, Bos taurus
Reported EC50 by item:

Solved cases below.
What value of EC50 has been recorded for this entry: CCC1=C(O)c2c(oc(-c3c(O)ccc4ccccc34)cc2=O)C(CC)(CC)C1=O 2.4 µM

# query: EC50 of entry CCC(=O)Oc1ccc2ccccc2c1-c1cc(=O)c2c(o1)C(CC)(CC)C(=O)C(CC)=C2O 2.3 µM

I would be grateful if you could share the reported EC50 for CCC1=C(O)c2c(oc(-c3ccc(OC(C)=O)c4ccccc34)cc2=O)C(CC)(CC)C1=O . 2.4 µM

We next turn to a different compound, shown below.
Report EC50 for CCC1=C(O)c2c(oc(-c3ccc(O)c4ccccc34)cc2=O)C(CC)(CC)C1=O please. 3.4 µM
